The following compounds are shown together with reported CC50 values.
# Tested on: Vero cells
# testConditions: African green monkey
API: value field is a number in µM; no unit string.

Example results:
In [3]: df
Out[3]:
                                   compound  targetofassay  unitssymbol  reportedresult
0  COc1cc(NC(C(=O)N2CCc3ccc(C(F)(F)F)cc32)c2ccc(Cl)cc2F)cc(OCCO)c1 (single isomer, unassigned)     Vero cells           µM              13
1  COc1cc(NC(C(=O)N2CCc3c(C)cc(C(F)(F)F)cc32)c2ccc(Cl)cc2)cc(OCCO)c1 (single isomer, unassigned) [Compound 10B]     Vero cells           µM              11
2  COc1cc(NC(C(=O)N2CCc3cc(F)c(C(F)(F)F)cc32)c2ccc(Cl)cc2)cc(OCCO)c1 (single isomer, unassigned) [Compound 12B]     Vero cells           µM              11
3  COc1cc(NC(C(=O)N2CCc3ccc(C(F)(F)F)cc32)c2ccc(Cl)cc2OC)cc(OCCO)c1 (single isomer, unassigned)     Vero cells           µM              12
4  COc1cc(NC(C(=O)N2CCc3c(C)cc(OC(F)(F)F)cc32)c2ccc(Cl)cc2)cc(OCCO)c1 (single isomer, unassigned)     Vero cells           µM              11

In: Data request, read-out CC50, for COc1cc(NC(C(=O)N2CCc3cc(OC)c(OC(F)(F)F)cc32)c2ccc(Cl)cc2)cc(OCCO)c1 (single isomer, unassigned) [Compound 13A]
Out: 12

In: What do you get for COc1cc(NC(C(=O)N2CCc3ccc(OC(F)(F)F)cc32)c2ccc(Cl)cc2F)cc(OCCO)c1 (single isomer, unassigned) ?
Out: 12

In: Also check COc1cc(NC(C(=O)N2CCc3cc(OC)c(C(F)(F)F)cc32)c2ccc(Cl)cc2)cc(OCCO)c1 (single isomer, unassigned)
Out: 12

In: Entry COc1cc(NC(C(=O)N2CCc3ccc(OC(F)(F)F)cc32)c2ccc(Cl)cc2)cc(OCCO)c1 (single isomer, unassigned) please
Out: 12

In: Next record, please: COc1cc(NC(C(=O)N2CCc3ccc(C(F)(F)F)cc32)c2ccc(Cl)cc2)cc(OCCO)c1 (single isomer, unassigned)
Out: 14

In: Again, but for COc1cc(NC(C(=O)N2CCc3ccc(OC(F)(F)F)cc32)c2ccc(Cl)cc2OC)cc(OCCO)c1 (single isomer, unassigned)
Out: 14
